I'd be grateful if you could share measured shrunken log2 fold change for these entries.
tested on: Escherichia coli TOP10; assay: shrunken log2 fold change of peptide-encoding DNA abundance (4.5 h post-induction vs induction); higher = less antimicrobial activity (less host growth inhibition); details: time post-induction: 4.5 h; library: site-saturation at positions 5, 18, 19, 20;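 further: peptides expressed intracellularly from a pBAD plasmid library in pooled LB shake-flask culture, induced with 0.3% L-arabinose, DNA abundance read by NGS, three biological replicates, DESeq2 with apeglm shrinkage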

Problem: What value of measured shrunken log2 fold change is listed for `RRIRSRPPRLPRPRPRPHCCPRP` ?
Solution: 0.022

Problem: What value of measured shrunken log2 fold change is listed for `RRIRQRPPRLPRPRPRPKNGPRP` ?
Solution: -0.159

Problem: What value of measured shrunken log2 fold change is listed for `RRIRMRPPRLPRPRPRPNPLPRP` ?
Solution: 0.567

Problem: What value of measured shrunken log2 fold change is listed for `RRIRFRPPRLPRPRPRPCVNPRP` ?
Solution: -0.121

Problem: What value of measured shrunken log2 fold change is listed for `RRIRLRPPRLPRPRPRPQMKPRP` ?
Solution: -0.0293

Problem: What value of measured shrunken log2 fold change is listed for `RRIRVRPPRLPRPRPRPQATPRP` ?
Solution: 0.271

Problem: What value of measured shrunken log2 fold change is listed for `RRIRQRPPRLPRPRPRPGWVPRP` ?
Solution: -0.124

Problem: What value of measured shrunken log2 fold change is listed for `RRIRIRPPRLPRPRPRPCKMPRP` ?
Solution: -0.0175

Problem: What value of measured shrunken log2 fold change is listed for `RRIRSRPPRLPRPRPRPKNDPRP` ?
Solution: -0.372

Problem: What value of measured shrunken log2 fold change is listed for `RRIRWRPPRLPRPRPRPHFPPRP` ?
Solution: 0.064

Problem: What value of measured shrunken log2 fold change is listed for `RRIRKRPPRLPRPRPRPCFVPRP` ?
Solution: -0.0847

Problem: What value of measured shrunken log2 fold change is listed for `RRIRKRPPRLPRPRPRPNFQPRP` ?
Solution: 0.287

Problem: What value of measured shrunken log2 fold change is listed for `RRIRNRPPRLPRPRPRPANHPRP` ?
Solution: -0.208

Problem: What value of measured shrunken log2 fold change is listed for `RRIRWRPPRLPRPRPRPFFHPRP` ?
Solution: -0.194

Problem: What value of measured shrunken log2 fold change is listed for `RRIRHRPPRLPRPRPRPAALPRP` ?
Solution: -0.0796
